- Test target: porcine pancreatic amylase (Sus scrofa, UniProt P00690)
- Sequence (P00690 16-511): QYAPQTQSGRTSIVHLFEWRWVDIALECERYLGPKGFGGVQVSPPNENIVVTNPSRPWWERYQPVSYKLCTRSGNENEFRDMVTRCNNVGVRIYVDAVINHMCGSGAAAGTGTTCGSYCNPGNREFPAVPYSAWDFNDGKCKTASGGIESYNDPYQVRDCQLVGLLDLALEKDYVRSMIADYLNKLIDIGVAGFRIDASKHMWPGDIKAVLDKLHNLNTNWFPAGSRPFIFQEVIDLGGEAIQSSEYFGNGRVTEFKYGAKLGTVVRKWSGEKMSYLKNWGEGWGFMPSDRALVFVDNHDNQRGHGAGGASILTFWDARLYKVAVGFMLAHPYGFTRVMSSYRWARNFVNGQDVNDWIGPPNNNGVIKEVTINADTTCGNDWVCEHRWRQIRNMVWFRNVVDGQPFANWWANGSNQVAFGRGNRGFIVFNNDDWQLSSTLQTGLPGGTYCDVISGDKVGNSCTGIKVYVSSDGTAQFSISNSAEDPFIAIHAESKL
- Protocol: In vitro alpha-amylase inhibitory activity (starch/DNS, 540 nm)
- Assay type: biochemical
- Run parameters: porcine pancreatic amylase, pH 6.8, 25 °C; test compounds 1–100 μg/ml; ± SEM; read-out: IC50 µg/ml ± SEM (alpha-amylase inhibition) (converted)
Measured quantity: IC50 (µM)
Numbers only, in µM.

Reference set (3 entries):
Smiles str	Unit name	IC50
OCCSc1nnc(-c2ccccc2)o1	µM	58.9
OCCSc1nnc(-c2ccccc2Cl)o1	µM	267
OCCSc1nnc(-c2cccc(Br)c2)o1	µM	298

Field: next compound
Q: Give the reported IC50 for this compound. OCCSc1nnc(-c2cccnc2)o1
Result: 831

----------
- Test system: α-glucosidase
- Protocol: In vitro alpha-glucosidase inhibitory activity (p-NPG, 400 nm)
- Format: biochemical
- Run parameters: concentration not stated (test compounds 1-100 μg/ml)
# if value of % Inhibition (alpha-glucosidase) reaches 40%, tag Fulfilled; if it stays below, tag Not fulfilled

// known answers, use as guide
Molecule	Answer label
OCCN1C[C@H](O)[C@@H](O)[C@H](O)[C@H]1CO [Miglitol, reference compound]	Fulfilled
OCCSc1nnc(-c2cc(O)c(O)c(O)c2)o1 [Compound 5f]	Not fulfilled
OCCSc1nnc(-c2ccccc2)o1 [Compound 5g]	Not fulfilled
OCCSc1nnc(-c2ccccn2)o1 [4a(a)]	Fulfilled
OCCSc1nnc(-c2ccncc2)o1 [4a(c)]	Not fulfilled
OCCSc1nnc(-c2ccccc2O)o1 [Compound 5a]	Fulfilled

Q: Is it the case that OCCSc1nnc(-c2ccc(O)cc2)o1 [Compound 5b] has % Inhibition (alpha-glucosidase) reaching or exceeding 40%?
Result: Fulfilled

----------
- Tested on: α-glucosidase
- Protocol: In vitro alpha-glucosidase inhibitory activity (p-NPG, 400 nm)
- Assay type: biochemical
- Run parameters: concentration not stated (test compounds 1-100 μg/ml)
Could you please report measured % Inhibition (alpha-glucosidase) for the items listed next?
One number for each entry, in %.

Compound	Measured quantity	Unit name	Recorded number
OCCSc1nnc(-c2cccc(I)c2)o1 [Compound 5e]	% Inhibition (alpha-glucosidase)	%	40.2
OCCSc1nnc(-c2ccccc2Cl)o1 [Compound 5c]	% Inhibition (alpha-glucosidase)	%	40.04

We next turn to a different compound, shown below.
Q: Supply % Inhibition (alpha-glucosidase) measured with α-glucosidase for OCCSc1nnc(-c2cccc(Br)c2)o1 [Compound 5d] .
Result: 39.7
